# measurement target: Glucose-6-phosphate 1-dehydrogenase (Homo sapiens, UniProt P11413)
# Sequence (P11413 whole entry): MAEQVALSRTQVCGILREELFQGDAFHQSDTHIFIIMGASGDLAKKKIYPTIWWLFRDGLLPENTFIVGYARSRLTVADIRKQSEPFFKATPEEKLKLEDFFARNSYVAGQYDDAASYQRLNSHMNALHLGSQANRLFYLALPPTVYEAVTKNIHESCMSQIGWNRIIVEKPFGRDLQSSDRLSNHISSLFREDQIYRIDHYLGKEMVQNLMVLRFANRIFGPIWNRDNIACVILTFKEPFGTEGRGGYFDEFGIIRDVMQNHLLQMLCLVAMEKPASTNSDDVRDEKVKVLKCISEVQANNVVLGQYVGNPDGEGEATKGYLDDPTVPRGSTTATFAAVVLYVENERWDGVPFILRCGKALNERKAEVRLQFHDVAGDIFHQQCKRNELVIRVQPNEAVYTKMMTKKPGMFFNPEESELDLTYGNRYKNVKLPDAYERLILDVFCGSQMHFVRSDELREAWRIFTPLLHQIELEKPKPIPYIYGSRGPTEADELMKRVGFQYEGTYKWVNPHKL
# method summary: inhibition of Homo sapiens G6PD, dose series – biochemical, fluorescence, selectivity assay for P. falciparum G6PD inhibitor project, dose response (AID 504792)
# Assay type: functional
The source made the active and inactive calls. Cut-off read from the data, not from the text of the source: active = IC50 of 20 µM or less and inactive = more.
# valid calls are 1 for active, -1 for inactive; nothing else

Worked set:
>  <cpd smiles>
Cc1ccc(-c2nc(N)s[n+]2-c2ccccc2)cc1

>  <measurement target>
Glucose-6-phosphate 1-dehydrogenase (Homo sapiens, UniProt P11413)

>  <answer label>
-1

$$$$
>  <cpd smiles>
CCCN1CCc2cccc3c2[C@H]1Cc1ccc(O)c(O)c1-3

>  <measurement target>
Glucose-6-phosphate 1-dehydrogenase (Homo sapiens, UniProt P11413)

>  <answer label>
-1

$$$$
>  <cpd smiles>
O=S(=O)(Nc1c(O)ccc2ccccc12)c1ccccc1

>  <measurement target>
Glucose-6-phosphate 1-dehydrogenase (Homo sapiens, UniProt P11413)

>  <answer label>
-1

$$$$

GET /call?item= CCC1(CC)Cc2ccccc2C(N)=C1C#N returns the recorded outcome of this test.
-1

Request: O=c1c2cc(F)ccc2sn1-c1ccc(F)cc1
1
